Target: Serine/threonine-protein kinase Chk1 (Homo sapiens, UniProt O14757)
Sequence (O14757 whole entry): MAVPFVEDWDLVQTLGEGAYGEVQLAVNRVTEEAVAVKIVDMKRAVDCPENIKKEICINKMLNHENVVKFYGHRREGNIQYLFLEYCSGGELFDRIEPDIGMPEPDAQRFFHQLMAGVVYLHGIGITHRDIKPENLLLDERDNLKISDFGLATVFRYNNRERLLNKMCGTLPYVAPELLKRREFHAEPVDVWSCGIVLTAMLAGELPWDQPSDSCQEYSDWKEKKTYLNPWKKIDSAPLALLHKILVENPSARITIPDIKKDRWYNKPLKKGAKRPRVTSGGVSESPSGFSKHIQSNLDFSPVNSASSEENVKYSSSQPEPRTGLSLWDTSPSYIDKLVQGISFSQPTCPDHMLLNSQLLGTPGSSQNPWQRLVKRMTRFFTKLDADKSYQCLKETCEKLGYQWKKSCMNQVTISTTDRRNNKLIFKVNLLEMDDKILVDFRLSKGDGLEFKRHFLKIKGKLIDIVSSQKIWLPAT
pIC50: −log10 of the molar value.
The following compounds were reported with pIC50 values on Serine/threonine-protein kinase Chk1 (Homo sapiens, UniProt O14757) in different studies.
readout: pIC50

In [3]: df
Out[3]:
                                    compound  readout  qualifier  measured
 0  COc1cc2c(cc1OCCc1ccncc1)Cc1c-2n[nH]c1-c1ccc(-c2ccc(O)cc2)cc1    pIC50          =      8.30
 1  NC(=O)c1cnc(N[C@H]2CCCNC2)c2cc(-c3ccc4ncccc4c3)sc12    pIC50          =      8.30
 2             O=c1[nH]ccc2ccc3ccc(Cl)cc3c12    pIC50          =      6.24
 3  O=C1NC(=O)c2c1c1c(O)ccc3c1c1c2c2ccccc2n1[C@]1(O3)O[C@H](CO)[C@@H](O)[C@H](O)[C@H]1O    pIC50          =      5.72
 4  COc1cc2c(cc1OCc1ccccn1)Cc1c(-c3ccc(-c4ccc(O)cc4)cc3)n[nH]c1-2    pIC50          =      7.70
 5  COc1cc(-c2ccc3c(c2)NC(=O)/C3=C\c2c[nH]c3c(C)cccc23)ccc1O    pIC50          =      5.88
 6  COc1cc2ncnc(Nc3cccc(Cl)c3F)c2cc1CN1CCN(C)CC1C(N)=O (configuration not stated)    pIC50          <      5.00
 7  NC(=O)Nc1sc(-c2ccc(Cl)cc2)cc1C(=O)NC1CCCCC1    pIC50          =      8.70
 8  Cc1ccc2[nH]c3c4c(OS(=O)(=O)O)ccc(O)c4c4c(c3c2c1)C(=O)NC4=O    pIC50          =      6.05
 9  COc1cc2c(cc1OCCn1ccnc1)-c1n[nH]c(-c3ccc(-c4ccc(O)cc4)cc3)c1C2    pIC50          =      8.52
10  Cn1cc(-c2cnn3c(N)c(Br)c(C[C@H]4CCC[C@@H](N)C4)nc23)cn1 (relative stereo)    pIC50          =      8.30
11  CC(C)(O)CC(=O)N1CCc2cc(Nc3ncc(C(F)(F)F)c(N[C@H]4CCCC[C@H]4N)n3)ccc2C1    pIC50          <      5.00
12  N#Cc1ccc(Nc2ncc(C(F)(F)F)c(NCCCNC3CCC3)n2)cn1    pIC50          =      5.83
13  NC(=O)c1cnc(N[C@H]2CCCNC2)c2cc(-c3ccc(F)cc3F)sc12    pIC50          =      8.05
14  NC(=O)c1cnc(N[C@H]2CCCNC2)c2nc(-c3ccc4ccccc4c3)cn12    pIC50          =      7.64
15  CNc1nc(Nc2cnc(C#N)c(N[C@@H]3CCNC3)c2)ncc1C(F)(F)F    pIC50          =      8.48
16  C[C@@H]1CCC(N2CC[C@]3(CN(C(=O)c4cc5ccccc5[nH]4)c4ccccc43)C2)CN1 (some centres not stated)    pIC50          <      4.52
